Listing of recorded pKd by entry.
Target: T1, His-tagged human TREM2 ECD (human, UniProt Q9NZC2 19-172)
T1 construct: Biacore and HDX say only recombinant human TREM2 (ECD); also called recombinant human TREM2; hTREM2
T1 sequence: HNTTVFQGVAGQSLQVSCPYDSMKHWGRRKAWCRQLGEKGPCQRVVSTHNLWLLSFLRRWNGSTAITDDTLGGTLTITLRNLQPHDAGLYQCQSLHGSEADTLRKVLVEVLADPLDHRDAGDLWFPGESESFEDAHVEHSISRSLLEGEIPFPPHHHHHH
Assay: SPR (Biacore)
// returns pKd (minus log10 of molar concentration), number only

Examples with answers:
CL0020123-2 (antibody, V domains shown, Humanized variant of CL0020123 (hVH NGDS/1 m, Vk graft); also called Clone CL0020123-2) VH: QVQLVQSGAEVKKPGASVKVSCKASGFSIEDFYIHWVRQAPGQGLEWMGWIDPENGDSKYAPKFQGRVTITADTSTSTAYMELSSLRSEDTAVYYCHADHGNYGSTMDYWGQGTLVTVSS VL: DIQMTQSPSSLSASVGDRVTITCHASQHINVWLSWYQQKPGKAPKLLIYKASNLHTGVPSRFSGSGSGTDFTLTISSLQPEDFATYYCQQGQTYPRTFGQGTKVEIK = 9.74
CL0020188-8 (antibody, V domains shown, Humanized variant of CL0020188 (hVH NA/3 m, hVL TG/graft); also called Clone CL0020188-8) VH: EVQLVESGGGLVQPGGSLRLSCAGSGFTFTDFYMSWVRQAPGKGPEWLSVIRNKANAYTAGYNPSVKGRFTISRDNSKNTLYLQMNSLRAEDTAVYYCARLTYGFDYWGQGTLVTVSS VL: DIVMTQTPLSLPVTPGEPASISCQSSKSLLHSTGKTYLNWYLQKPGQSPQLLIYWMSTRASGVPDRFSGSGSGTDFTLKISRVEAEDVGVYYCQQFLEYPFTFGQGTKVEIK = 8.14

Fill blank: measured pKd of the binder CL0020188-4 (antibody, V domains shown, Humanized variant of CL0020188 (hVH NG/3 m, hVL TG/graft); also called Clone CL0020188-4) VH: EVQLVESGGGLVQPGGSLRLSCAGSGFTFTDFYMSWVRQAPGKGPEWLSVIRNKANGYTAGYNPSVKGRFTISRDNSKNTLYLQMNSLRAEDTAVYYCARLTYGFDYWGQGTLVTVSS VL: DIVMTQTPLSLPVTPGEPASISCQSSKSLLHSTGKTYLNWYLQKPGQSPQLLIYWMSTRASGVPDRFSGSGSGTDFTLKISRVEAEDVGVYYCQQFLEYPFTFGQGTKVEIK is ____.
8.32

Attribution: patent US20220119522A1
